In this section we review reported Ki values for a set of compounds.
# study.target: hGnRHR (Homo sapiens)
# Sequence (P30968 1-328): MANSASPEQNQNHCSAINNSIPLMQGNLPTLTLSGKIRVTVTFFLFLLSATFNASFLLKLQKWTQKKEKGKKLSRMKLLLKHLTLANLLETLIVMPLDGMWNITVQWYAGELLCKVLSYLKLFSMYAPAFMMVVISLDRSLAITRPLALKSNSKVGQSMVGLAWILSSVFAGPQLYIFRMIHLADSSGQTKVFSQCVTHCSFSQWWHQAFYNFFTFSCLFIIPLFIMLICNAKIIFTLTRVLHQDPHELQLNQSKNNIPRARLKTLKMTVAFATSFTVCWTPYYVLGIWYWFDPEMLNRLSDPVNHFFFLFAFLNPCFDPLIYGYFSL
# experimental.details: Competitive binding for LHRH/GnRH by fluorescence based FLIPR-assay in HEK293T cells stably expressing GnRH receptors
# assay.context: 5 nM LHRH agonist, Ki by cheng-prusoff equation
Only the number, expressed in nM, is required.

CC(C)(C)c1ccc(-c2nc3c(N4CCN(Cc5ccc6nccnc6c5)CC4)cccc3[nH]2)cc1 [WAY207024, reference compound] = 12.2

We now examine a further compound.
// field: Ki; key: CC(C)(C)c1ccc(-c2nc3c(N4CCN(C(=O)CI)CC4)cccc3[nH]2)cc1 [Compound-1] ; value = 82
